Attribution: ChEMBL document CHEMBL3392975

# study target: High affinity nerve growth factor receptor (Homo sapiens)
# experiment summary: Antagonist activity at full length glycosylated human TrkA expressed in HEKN3S cells assessed as reduction in NGF-induced ERK 42/44 phosphorylation incubated for 5 mins by automated immunofluorescence assay
readout label: pEC50
Numbers only, as −log10 of the molar value.

# input compound: CN(C)CCC=C1c2ccccc2CCc2ccccc21 ; wanted: its pEC50
4.07

----------
# study target: High affinity nerve growth factor receptor (Homo sapiens)
# experiment summary: Binding affinity to C345 residue of human recombinant TrkAIg2-NMR construct expressed in Escherichia coli by 1H-15N HSQC NMR spectroscopy
readout label: Kd (µM)
One number for each entry, in µM.

Reported Kd for CN(C)CCC=C1c2ccccc2CCc2ccccc21 : what is it?
2100

----------
# study target: UniProt P04629
# experiment summary: Binding affinity to V305 residue of human recombinant TrkAIg2-NMR construct expressed in Escherichia coli by 1H-15N HSQC NMR spectroscopy
readout label: Kd (µM)
Answers are plain numbers, in µM.

Consider the compound CN(C)CCC=C1c2ccccc2CCc2ccccc21 [AMITRIPTYLINE] and give its measured Kd.
2100

----------
# study target: High affinity nerve growth factor receptor (Homo sapiens)
# experiment summary: Binding affinity to F303 residue of human recombinant TrkAIg2-NMR construct expressed in Escherichia coli by 1H-15N HSQC NMR spectroscopy
readout label: Kd
State the result as a value with its unit after it.

Field: Kd (High affinity nerve growth factor receptor (Homo sapiens)). Entry: CN(C)CCC=C1c2ccccc2CCc2ccccc21 [AMITRIPTYLINE]
2.2 mM

----------
# study target: High affinity nerve growth factor receptor (Homo sapiens, UniProt P04629)
# Sequence (P04629 whole entry): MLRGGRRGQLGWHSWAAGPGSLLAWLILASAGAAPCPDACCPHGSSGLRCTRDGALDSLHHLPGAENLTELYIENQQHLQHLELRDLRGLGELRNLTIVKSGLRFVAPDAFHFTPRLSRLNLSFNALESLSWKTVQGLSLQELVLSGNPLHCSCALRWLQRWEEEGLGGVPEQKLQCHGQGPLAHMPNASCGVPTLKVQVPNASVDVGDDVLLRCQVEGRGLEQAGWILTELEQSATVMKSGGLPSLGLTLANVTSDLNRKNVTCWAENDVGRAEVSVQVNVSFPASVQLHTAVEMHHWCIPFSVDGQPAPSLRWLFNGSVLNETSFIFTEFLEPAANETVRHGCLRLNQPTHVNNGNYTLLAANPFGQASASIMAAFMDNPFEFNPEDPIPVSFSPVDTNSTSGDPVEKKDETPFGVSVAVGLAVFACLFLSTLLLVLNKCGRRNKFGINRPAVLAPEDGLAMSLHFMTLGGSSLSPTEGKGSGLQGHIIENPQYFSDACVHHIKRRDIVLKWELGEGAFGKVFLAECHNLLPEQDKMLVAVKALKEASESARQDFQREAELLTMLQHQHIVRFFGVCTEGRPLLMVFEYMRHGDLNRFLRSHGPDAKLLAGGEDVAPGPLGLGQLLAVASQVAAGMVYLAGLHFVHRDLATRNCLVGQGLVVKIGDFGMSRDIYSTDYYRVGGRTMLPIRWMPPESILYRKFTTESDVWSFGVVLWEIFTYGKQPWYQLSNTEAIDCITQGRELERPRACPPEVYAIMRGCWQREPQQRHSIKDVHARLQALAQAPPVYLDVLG
# experiment summary: Binding affinity to T292 residue of human recombinant TrkAIg2-NMR construct expressed in Escherichia coli by 1H-15N HSQC NMR spectroscopy
readout label: Kd

Look at this compound and give its reported Kd. CN(C)CCC=C1c2ccccc2CCc2ccccc21
1800 µM

----------
# study target: High affinity nerve growth factor receptor (Homo sapiens, UniProt P04629)
# experiment summary: Displacement of [125I]NGF from full length human TrkA expressed in HEKN3S cells by gamma counting based radioligand competition assay
readout label: IC50 (µM)
Numbers only, in µM.

Item CN(C)CCC=C1c2ccccc2CCc2ccccc21 has what recorded IC50?
60
